ASSAY_NOTES: Mass spectrometry of compound exposure in zebrafish embryos
Assay type: in vivo
DETAILS: EK (wild-type), zebrafish, whole embryo/larva homogenate, other: bathing in egg water containing compound; egg water dose 100 nM; read-out: effective in vivo exposure (MS)

>  <MOLECULE>
CC(C)c1nc(-c2cccc(NS(=O)(=O)c3c(F)cccc3F)c2F)c(-c2ccnc(N)n2)s1 [Compound 8, desmethyl-Dabrafenib]

>  <concentration at 5 days, nM>
0.26

$$$$

Measured values drawn from patent US20210196714A1 for this set.
